pIC50: −log10 of the molar value.
Assembled from different publications: pIC50 for Prostaglandin G/H synthase 1 (Ovis aries, UniProt P05979).
Endpoint: pIC50

Study these solved cases before continuing.
{"Cpd Smiles": "CC(=O)OCO/N=[N+](\\[O-])N(C)CCOC(=O)Cc1ccc(-c2cc(C(F)(F)F)nn2-c2ccc(S(N)(=O)=O)cc2)cc1", "pIC50": 4.45}
{"Cpd Smiles": "COC(=O)[C@H](CO)n1nncc1COc1ccc2ccccc2c1-c1c(OCc2cnnn2[C@@H](CO)C(=O)OC)ccc2ccccc12", "pIC50": 4.07}

[A] COc1ccc(-c2nc(-c3ccccc3O)n(-c3ccc(S(N)(=O)=O)cc3)n2)c(O)c1
[B] CC1=NN(c2cccc(Cl)c2)C(=O)/C1=C\c1cn(-c2nc(N3CCOCC3)nc(N3CCOCC3)n2)c2ccccc12
Task item: Compare reported pIC50 values for A and B . Which is lower? Answer by quoting the chosen item's label.
Reply: A

###

Assembled from different publications: IC50 for Prostaglandin G/H synthase 1 (Ovis aries, UniProt P05979).

{"Molecule": "COc1ccc2c(c1)c(CC(=O)OC[C@@H]1CCCN1/[N+]([O-])=N/OCOC(C)=O)c(C)n2C(=O)c1ccc(Cl)cc1", "Measured Value": "> 100 µM"}
{"Molecule": "N#CSC[C@@H]1C[C@](O)(c2ccccc2)[C@@H](c2ccccc2)[C@H](c2ccc(Br)cc2)O1 (relative stereo)", "Measured Value": "13 µM"}
{"Molecule": "COc1c(-c2cc(C(F)(F)F)nn2-c2ccc(S(N)(=O)=O)cc2)c(O)c(OC)c2occc12", "Measured Value": "> 50 µM"}
{"Molecule": "CCCC/C(=C\\c1cc(OCCc2ccc(C(F)(F)F)cc2)ccc1OCc1ccc(C(F)(F)F)cc1)C(=O)O", "Measured Value": "> 10 µM"}
{"Molecule": "CC(C)(C)c1cc(-c2nnc(S)o2)cc(C(C)(C)C)c1O", "Measured Value": "> 20 µM"}
{"Molecule": "CCOc1nnc(-c2cc(C(C)(C)C)c(O)c(C(C)(C)C)c2)s1", "Measured Value": "3.4 µM"}
{"Molecule": "O=C1COCCN1c1ccc(Nc2nc(Cl)nc(Cl)n2)cc1", "Measured Value": "> 10 µM"}
{"Molecule": "COc1c(-c2cc(-c3cccnc3)nn2-c2ccc(S(N)(=O)=O)cc2)c(O)cc2occc12", "Measured Value": "> 50 µM"}
{"Molecule": "N#Cc1c(N=Cc2cccs2)c(C(=O)Nc2ccccc2)n2c1CCC2", "Measured Value": "4.96 µM"}
{"Molecule": "CCCC/C(=C\\c1cc(OCc2ccc(Oc3ccccn3)cc2)ccc1OCc1ccc(C(F)(F)F)cc1)C(=O)O", "Measured Value": "> 10 µM"}

Task item: Would you mind telling me what IC50 value was observed for "NS(=O)(=O)c1ccc(-c2conc2-c2ccccc2)cc1" ?
Reply: > 100 µM

Task item: Would you mind telling me what IC50 value was observed for Nc1ccc2[nH]cc(C3CC(C(F)(F)F)=NN3c3ccc(S(N)(=O)=O)cc3)c2c1 (stereo not drawn) ?
Reply: > 100 µM

Task item: Would you mind telling me what IC50 value was observed for "CS(=O)(=O)c1ccc(-c2[nH]c(Cl)cc2-c2ccc(F)cc2)cc1" ?
Reply: 94 µM

Task item: Would you mind telling me what IC50 value was observed for NS(=O)(=O)c1ccc(N2N=C(c3ccco3)CC2c2cccs2)cc1 (stereo not drawn) ?
Reply: 12.3 µM

Task item: Would you mind telling me what IC50 value was observed for "NS(=O)(=O)c1ccc(CCn2cc(-c3ccccc3)nn2)cc1" ?
Reply: > 100 µM
